test system: UO-31 renal; test: NCI tumour cell line growth inhibition, 48 h; in the data active means GI50 below about 0.43 µM; inactive means the rest
Outcome field: choose from active, inactive

Input: Outcome logged for COc1ncnc2c1ncn2C/C(Br)=C(\Br)CCl in this assay:
Output: inactive

Input: Outcome logged for CN([N-]C(=O)CC(=O)[N-]N(C)C(=S)c1ccccc1)C(=S)c1ccccc1.[Cu+2] in this assay:
Output: active

Input: Outcome logged for Cc1ccc2nc(NC(=O)CSC(=S)N3CCN(Cc4ccccc4)CC3)sc2c1 in this assay:
Output: inactive

----------
system: MDA-MB-231 breast; experiment: NCI tumour cell line growth inhibition, 48 h; in the data active means GI50 below about 0.43 µM; inactive means the rest
Outcome field: choose from true (1) (active), false (0) (inactive)

Input: Outcome logged for COc1cc(/C=C\c2cc(/C=C\c3ccc(O)c(OC)c3)n(C(=O)Nc3ccc(C(F)(F)F)cc3)n2)ccc1O in this assay:
Output: false (0)

Input: Outcome logged for CC(=O)c1ccc(NCn2nc(-c3ccccc3O)oc2=S)cc1 in this assay:
Output: false (0)

Input: Outcome logged for CCCCCn1ncc(-c2c(O)c(O)cc3c(O)c(-c4c(C)cc5c(-c6cnn(CCCCC)n6)c(O)c(O)cc5c4O)c(C)cc23)n1 in this assay:
Output: true (1)

Input: Outcome logged for C=C(C)[C@@H]1CC[C@]2(C)[C@H](CC=C3[C@@H]4CC(C)(C)CC[C@]4(C(=O)OC)CC[C@]32C)[C@@]1(C)CC/C(N)=N/O in this assay:
Output: false (0)

Input: Outcome logged for CO/N=C(\COc1ccc2c(=O)cc(-c3ccccc3)oc2c1)c1ccc(OC)cc1 in this assay:
Output: false (0)

Input: Outcome logged for COc1ccc(-n2nc(C)c3c(Nc4ccc(NC(=O)Nc5cc(C(F)(F)F)ccc5F)cc4)ncnc32)cc1 in this assay:
Output: false (0)

Input: Outcome logged for O=c1c2ccccc2c(C=NCCNCCO)c2oc3ccccc3n12 in this assay:
Output: false (0)

Input: Outcome logged for COc1ccc(-c2ccc(=O)oc2-c2cc(OC)c(OC)c(OC)c2)cc1O in this assay:
Output: true (1)

Input: Outcome logged for CCOc1ccc2c(-c3ccnc(Nc4cccc(C(F)(F)F)c4)n3)cnn2n1 in this assay:
Output: false (0)

----------
tested on: HL-60(TB) leukemia; assay: NCI tumour cell line growth inhibition, 48 h; in the data active means GI50 below about 0.43 µM; inactive means the rest
Outcome field: choose from true (1) = active, false (0) = inactive

Input: Outcome logged for O=c1cc(-c2ccccc2)oc2cc(OCc3cn(Cc4ccc(F)cc4)nn3)cc(O)c12 in this assay:
Output: false (0)

Input: Outcome logged for CCCC/C=C1\CCC(CN2CCOCC2)C1=O (stereo not given) in this assay:
Output: false (0)

Input: Outcome logged for COc1cc(C(C)c2cc3c(cc2OCCOCCOc2cc4c(cc2C(C)c2cc(OC)c(OC)c(OC)c2)OCO4)OCO3)cc(OC)c1OC (stereo not given) in this assay:
Output: false (0)

Input: Outcome logged for COc1cc(C)c(N(C)C(=O)CN(C)C)cc1Nc1nc(Nc2cccc(F)c2C(N)=O)c2cc[nH]c2n1 in this assay:
Output: false (0)

Input: Outcome logged for c1ccc(CN2CCC3(CC2)ONC2=NCCN23)cc1 in this assay:
Output: false (0)

Input: Outcome logged for Cc1cc2cc(Oc3ccnc(Nc4cccc(CS(=O)(=O)NCCN(C)C)c4)n3)ccc2[nH]1 in this assay:
Output: false (0)

Input: Outcome logged for COc1ccc(/C=C2/CCOC2=O)cc1 in this assay:
Output: false (0)

Input: Outcome logged for C[C@]1(O)CC(=O)[C@]2(O)C3=C(C=C[C@]2(O)C1)C(=O)c1c(O)cccc1C3=O in this assay:
Output: false (0)

Input: Outcome logged for CCCCCn1ncc(-c2c(O)c(O)cc3c(O)c(-c4c(C)cc5c(-c6cnn(CCCCC)n6)c(O)c(O)cc5c4O)c(C)cc23)n1 in this assay:
Output: true (1)

Input: Outcome logged for CNC1=C(Br)C(=O)C2=C(C1=O)C1C3=C(C(=O)C=CC3=O)C2c2ccccc21 (stereo not given) in this assay:
Output: false (0)

Input: Outcome logged for CN([N-]C(=O)CC(=O)[N-]N(C)C(=S)c1ccccc1)C(=S)c1ccccc1.[Cu+2] in this assay:
Output: true (1)

Input: Outcome logged for O=c1c2ccccc2c(C=NCCNCCO)c2oc3ccccc3n12 in this assay:
Output: false (0)

Input: Outcome logged for COc1ccc(S(=O)(=O)N2CCCCC2)cc1NC(=O)c1[nH]c(C)c2c1CCCCC2=O in this assay:
Output: false (0)

Input: Outcome logged for Cn1c(-c2c(N)n(Cc3ccc(Cl)cc3)c3nc(C#N)c(C#N)nc23)nc2ccccc21 in this assay:
Output: false (0)

Input: Outcome logged for COc1cc2c(cc1O)CCN[C@@]21CS[C@H]2c3c(OC(C)=O)c(C)c4c(c3C(COC1=O)N1C2C2c3c(cc(C)c(OC)c3O)CC([C@@H]1O)N2C)OCO4 (stereo not given in full) in this assay:
Output: true (1)
